Where do these numbers come from? They come from PubChem BioAssay (NCATS).

Procedure Text: BET inhibitor-based combinations targeting novel dependencies in MECOM-rearranged (r) AML: OCI-AML3 cell line (AID 2202232); also: nearly all actives have a fitted effect of over 35% in size
Condition: CellTiter-Glo luminescence, 48 h; OCI-AML3 viability; series mostly up to 46 µM
Records with an inconclusive call do not appear. Activity calls are given as the source filed them. Calls follow the shape of the dose curve; as a rule, active = well fitted inhibition curve with a large enough effect; inconclusive = small, poorly fitted or top-dose-only effect; inactive = no such curve, though single readings can be large or run the other way.
Thanks in advance; please answer with one of these: True = active, False = inactive

Test call, this molecule: `Cc1cccc(-c2[nH]c(C(C)(C)C)nc2-c2ccc3nccnc3c2)n1`
False

Could you do the same for CC(C)C(C)C=CC(C)C1CCC2C3=CC=C4CC(O)CCC4(C)C3CCC21C (centres undefined) , please?
False

What would you report for `OC[C@H]1O[C@@H](n2cnc3c2NC=NC[C@H]3O)C[C@@H]1O` ?
False

What about this molecule? `Nc1ccn([C@@H]2CS[C@H](CO)O2)c(=O)n1`
False

Request: `O=C1c2ccccc2-c2n[nH]c3cccc1c23`
True

// repeat for `COc1cc(Nc2c(C#N)cnc3cc(OCCCN4CCN(C)CC4)c(OC)cc23)c(Cl)cc1Cl` and report
True

// query: `COc1cc(Nc2ncc(F)c(Nc3ccc4c(n3)NC(=O)C(C)(C)O4)n2)cc(OC)c1OC`
True

What do you have for `CC1(C)CN(C(=O)c2ccc(-c3cccc4nc(NC(=O)C5CC5)nn34)cc2)C1` ?
False

// repeat for `OCCCNc1cc(-c2ccnc(Nc3cccc(Cl)c3)n2)ccn1` and report
True

Same again, this time with `OC[C@H]1O[C@@H](Oc2cc(O)cc(/C=C/c3ccc(O)cc3)c2)[C@H](O)[C@@H](O)[C@@H]1O`
False

// query: `Cc1nc(-c2ccc(OCC(C)C)c(C#N)c2)sc1C(=O)O`
False

Please give the result for `CC(C)c1cc(CNc2nc(Nc3cc(C4CC4)[nH]n3)cc(N3CCN(C)CC3)n2)on1` too.
True

Do the same for `CCOc1cc(N2CCC(O)CC2)ccc1Nc1ncc2c(n1)N(C)c1ccccc1C(=O)N2C` please
True

What do we get for `COCCCOc1cc(C[C@@H](C[C@H](N)[C@@H](O)C[C@H](C(=O)NCC(C)(C)C(N)=O)C(C)C)C(C)C)ccc1OC` ?
False

----------
System Name: Retinaldehyde dehydrogenase 3 (Homo sapiens) (UniProt P47895)
Procedure Text: qHTS for Inhibitors of the Aldehyde Dehydrogenase Family (ALDH1A3) Primary screen (AID 2061315);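 also: plate controls were DMSO vehicle for no effect and reference inhibitor for full effect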
Condition: ALDH inhibition qHTS; series mostly up to 56 µM
Inconclusive results are not listed. Calls of active or inactive are those of the source. The call rests on the fitted dose curve; in most records, active means well fitted inhibition curve with a large enough effect; inconclusive means small, poorly fitted or top-dose-only effect; inactive means no such curve, though single readings can be large or run the other way.
Property Label: activity change, negative = inhibition

Look up activity change, negative = inhibition with Retinaldehyde dehydrogenase 3 (Homo sapiens) (UniProt P47895) for this compound: `CCC[C@H](N[C@H]1CCc2cc(F)cc(F)c2C1)C(=O)Nc1cn(C(C)(C)CNCC(C)(C)C)cn1`
inactive

Do the same for `Cn1cc(-c2cnn3c(N)c(Br)c([C@@H]4CCCNC4)nc23)cn1` please
inactive

Also, C=C1CCC2C(C)(C)C(O)CCC2(C)C1CCC(C)CCO (stereo not drawn) please.
inactive

----------
System Name: Cellular tumor antigen p53 (Homo sapiens)
Procedure Text: Primary qHTS for small molecule compounds that upregulate eGFP-tagged delta133p53alpha (in N-terminal) cells. (AID 2060322);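 also: cells pre-induced with doxycycline then dosed without doxycycline; 0% = DMSO vehicle and 100% = reference activator; nearly all actives have a fitted effect of over 75% in size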
Condition: NCI-H358 eGFP-delta133p53alpha fluorescence, 24 h; hits give high values
Results filed as inconclusive are left out.
Property Label: activation (%)
The reply should be a number in %, with the unit left off.

Item `C[C@]12CC[C@H]3[C@@H](CCC4=CC(=O)CC[C@@]43C)[C@@H]1CC[C@@H]2C(=O)CO` with Cellular tumor antigen p53 (Homo sapiens) - activation?
-5.86

// same read-out, input: `NC(=O)NN=Cc1ccc([N+](=O)[O-])o1`
13.5

Lookup `CCCOc1ccc(S(=O)(=O)N2CCN(CCO)CC2)cc1-c1nc2c(CCC)cn(CC)c2c(=O)[nH]1`
-0.893

Next entry: `Nc1ccn([C@@H]2CS[C@H](CO)O2)c(=O)n1`
-9.96

Another molecule: CC(C)(O)c1ccc2c(c1)C(=O)CC1[C@](C)(CO)CCC[C@]21C (stereo partly specified)
26.8

Continuing:
Form: Entry = `COc1ccc(CCC(=O)O)c(O[C@@H]2O[C@H](CO)[C@@H](O)[C@H](O)[C@H]2O)c1` | System = Cellular tumor antigen p53 (Homo sapiens) | activation = ____
-13.7

Now try Oc1cc2c(cc1O)C(c1ccccc1)CNCC2 (stereo unspecified) .
5.86

----------
Procedure Text: BET inhibitor-based combinations targeting novel dependencies in MECOM-rearranged (r) AML: MV-4-11 cell line (AID 2202233); also: potency is read from the fitted curve at half-maximal effect; nearly all actives have a fitted effect of over 45% in size
Condition: MV-4-11 AML viability, CellTiter-Glo luminescence, 48 h; series mostly up to 46 µM
Results filed as inconclusive are left out. Activity calls are given as the source filed them. Calls follow the shape of the dose curve; as a rule, active = well fitted inhibition curve with a large enough effect; inconclusive = small, poorly fitted or top-dose-only effect; inactive = no such curve, though single readings can be large or run the other way.
Property Label: Potency

Worked examples, 4 compounds total:
Dear colleague, I am looking for the recorded Potency of the following compound: `Cc1cc(N2CCOCC2)ccc1Nc1nc(NC2CCCCC2)c2[nH]cnc2n1`
1.32 µM (active)

// repeat for `O=c1c(-c2ccc(O)cc2)coc2cc(O)ccc12` and report
23.5 µM (active)

What about this compound? `CC[C@@]1(O)C(=O)OCc2c1cc1n(c2=O)Cc2cc3cc(O)ccc3nc2-1`
0.0066 µM (active)

One more compound: `Cc1c(Cn2c(C)nc3c(C(=O)O)cc(N4CCOCC4)cc32)cccc1C(F)(F)F`
4.68 µM (active)

Pending compound:
Please give the measured Potency for this compound: `CC(C)c1noc(N2CCC(COc3ccc(-c4ccc(S(C)(=O)=O)cc4)nc3)CC2)n1`
2.35 µM (active)

----------
System Name: Cellular tumor antigen p53 (Homo sapiens) (UniProt P04637)
Sequence (P04637 whole entry, looked up): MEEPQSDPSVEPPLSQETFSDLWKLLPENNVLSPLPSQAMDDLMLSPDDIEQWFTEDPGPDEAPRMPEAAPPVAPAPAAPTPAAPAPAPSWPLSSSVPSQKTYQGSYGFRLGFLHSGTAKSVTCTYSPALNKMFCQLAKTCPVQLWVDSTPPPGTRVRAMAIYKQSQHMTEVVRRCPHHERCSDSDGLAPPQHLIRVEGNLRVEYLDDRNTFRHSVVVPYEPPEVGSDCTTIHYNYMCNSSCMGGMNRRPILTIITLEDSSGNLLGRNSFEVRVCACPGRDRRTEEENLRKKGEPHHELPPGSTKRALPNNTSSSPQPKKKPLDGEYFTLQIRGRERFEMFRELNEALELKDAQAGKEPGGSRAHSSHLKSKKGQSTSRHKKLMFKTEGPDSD
Procedure Text: Primary qHTS for small molecule compounds that upregulate eGFP-tagged delta133p53alpha (in C-terminal) cells. (AID 2060324)
Condition: NCI-H358 delta133p53alpha-eGFP (C-terminal tag), GFP fluorescence imaging, 24 h; series mostly up to 57.5 µM
Records with an inconclusive call do not appear. Active and inactive are the calls of the source. The call rests on the fitted dose curve; in most records, active means well fitted activation curve with a large enough effect; inconclusive means small, poorly fitted or top-dose-only effect; inactive means flat fitted curve, though single readings scatter.
Output constraint: value belongs to active, inactive

Consider the following illustrative entries.
Returns: the outcome recorded for `NCCc1cnc[nH]1` in this assay.
inactive

Here is the next molecule: OCc1cc(C(O)CNCCCCCCOCCCCc2ccccc2)ccc1O (stereo not given)
inactive

What do we get for `Cc1[nH]c(=O)c(C#N)cc1-c1ccc2nccn2c1` ?
active

Another molecule to look at: `O=[N+]([O-])c1ccc(CNc2nc(NCc3cccc(C(F)(F)F)c3)nc3nc[nH]c23)cc1`
inactive

More entries:
Record request — test call for `N#C/C(=C\c1ccc(O)c(O)c1)C(=O)NCCCNC(=O)/C(C#N)=C/c1ccc(O)c(O)c1`
inactive

----------
System Name: Retinal dehydrogenase 2 (Homo sapiens)
Procedure Text: qHTS for Inhibitors of the Aldehyde Dehydrogenase Family (ALDH1A2) Confirmation screens (AID 2061314); also: nearly all actives have a fitted effect of over 65% in size; also: potency is read from the fitted curve at half-maximal effect
Condition: ALDH1A2 enzyme inhibition qHTS confirmation; series mostly up to 45.9 µM
Results filed as inconclusive are left out. The source made the active and inactive calls. Calls come from the whole dose curve; as a rule, active = well fitted inhibition curve with a large enough effect; inconclusive = small, poorly fitted or top-dose-only effect; inactive = no such curve, though single readings can be large or run the other way.
Property Label: Potency

Known Potency results, listed for orientation:
For the compound `Cc1ccc2nc3sc(C(=O)NCCN4CCOCC4)cc3cc2c1` , what Potency is on record?
inactive

Would you mind doing `Cn1nnnc1Sc1ncnc2scc(Br)c12` as well?
inactive

Now the compound `O=C1NC(=O)/C(=C/c2cccn2-c2ccc(P(O)O)cc2)N1`
inactive

Do the same for `O=C(Nc1ccc(F)c(C(F)(F)F)c1)Nc1nnc(C2CCCCC2)s1` please
inactive

Next compound up: `Cc1scc2c1N(C(=O)CN1CCN(C)CC1)c1ccccc1NC2=O`
inactive

Next:
What measured Potency goes with `O=[S+]([O-])(NCC#CCSc1nnc(-c2cccc3ccccc23)o1)c1ccc(F)cc1` ?
inactive

For `O=C(/C=C/c1ccc([N+](=O)[O-])o1)Nc1cccc([S+](=O)([O-])Nc2ccccc2F)c1` then?
7.98 µM (active)

----------
System Name: Retinal dehydrogenase 2 (Homo sapiens) (UniProt O94788)
Procedure Text: qHTS for Inhibitors of the Aldehyde Dehydrogenase Family (ALDH1A2) Confirmation screens (AID 2061314); also: nearly all actives have a fitted effect of over 65% in size
Condition: ALDH1A2 enzyme inhibition qHTS confirmation; series mostly up to 45.9 µM
Results filed as inconclusive are left out. The source made the active and inactive calls. The call rests on the fitted dose curve; in most records, active means well fitted inhibition curve with a large enough effect; inconclusive means small, poorly fitted or top-dose-only effect; inactive means no such curve, though single readings can be large or run the other way.
The categories you may choose from are yes = active, no = inactive

Worked set:
Fill in: this test's call for `COC(=O)Cc1cc2c(c([N+](=O)[O-])c1)N(C(=O)CC[C@H](N)C(=O)O)CC2` is ___
no

Thanks! And `C=C(C)C(=O)O[C@H]1[C@H]2C(=C)C(=O)O[C@@H]2/C=C(\CO)CC/C=C(/C=O)[C@@H]1O` ?
no

Request: COc1ccc(CC2NCCc3c2[nH]c2ccc(C)cc32)cc1OC (configuration not stated)
no

Also, `C=C1C(=O)O[C@H]2C[C@@H](C)[C@@H]3CCC(=O)[C@@]3(C)C[C@H]12` please.
no

Next compound: `CC(C)(C)OC(=O)N1CCC(c2ccc(NCc3ccc(-c4ccc(C#N)cc4)o3)cc2)CC1`
yes

---
Any idea what this test logged for `FC(F)(F)c1cccc(N2CCN(C(=S)Nc3nccc4cccnc34)CC2)c1` ?
yes

Could you do the same for `O=C(O)c1ccc(-n2cccc2/C=C2\SC(=O)N(Cc3ccc(Cl)cc3)C2=O)cc1` , please?
yes

Also `CC(C)(C)c1ccc(SC2=NS(=O)(=O)c3ccccc32)cc1` ?
yes

Would you mind doing `O=C(O)c1cccc(-n2[nH]c(-c3ccccc3)cc2=O)c1` as well?
yes

What do you get for `COc1ccc(S(=O)(=O)Nc2cccc(-c3ccc(N4CCCCCC4)nn3)c2)c(OC)c1` ?
no

Same question, `OC[C@@]1(O)CO[C@@H](OC[C@H]2O[C@@H](Oc3ccccc3)[C@H](O)[C@@H](O)[C@@H]2O)[C@@H]1O` this time
no

Entry `O=C(O)c1cccc(-c2noc(-c3ccccc3F)n2)c1` please
no

Quick one: `COc1ccc(CC(=O)Nc2c(C(=O)N3CCN(c4ccccc4)CC3)oc3ccccc23)cc1OC`
no

What would you report for CC/C=C/C(O)C(O)C1=C(C)C(=O)C2(O1)C(=O)NC(OC)(C(=O)c1ccccc1)C2O (configuration not stated) ?
no

Follow-up item: Cc1c(NC(=O)c2cc3c(s2)CCCC3)cccc1-c1cn(C)c(=O)c(Nc2ccc(C3C(=O)N(C)CCN3C)cc2)n1 (configuration not stated)
no

Ok, now `CCOc1ccc(-c2cc(C(=O)NCCc3ccc(C)cc3)c3ccccc3n2)cc1`
no
